Hey, just so you know, these numbers are from ChEMBL document CHEMBL1201862.

Target Or Test System: Ataxin-2 (Homo sapiens) (UniProt Q99700)
Sequence (Q99700 whole entry): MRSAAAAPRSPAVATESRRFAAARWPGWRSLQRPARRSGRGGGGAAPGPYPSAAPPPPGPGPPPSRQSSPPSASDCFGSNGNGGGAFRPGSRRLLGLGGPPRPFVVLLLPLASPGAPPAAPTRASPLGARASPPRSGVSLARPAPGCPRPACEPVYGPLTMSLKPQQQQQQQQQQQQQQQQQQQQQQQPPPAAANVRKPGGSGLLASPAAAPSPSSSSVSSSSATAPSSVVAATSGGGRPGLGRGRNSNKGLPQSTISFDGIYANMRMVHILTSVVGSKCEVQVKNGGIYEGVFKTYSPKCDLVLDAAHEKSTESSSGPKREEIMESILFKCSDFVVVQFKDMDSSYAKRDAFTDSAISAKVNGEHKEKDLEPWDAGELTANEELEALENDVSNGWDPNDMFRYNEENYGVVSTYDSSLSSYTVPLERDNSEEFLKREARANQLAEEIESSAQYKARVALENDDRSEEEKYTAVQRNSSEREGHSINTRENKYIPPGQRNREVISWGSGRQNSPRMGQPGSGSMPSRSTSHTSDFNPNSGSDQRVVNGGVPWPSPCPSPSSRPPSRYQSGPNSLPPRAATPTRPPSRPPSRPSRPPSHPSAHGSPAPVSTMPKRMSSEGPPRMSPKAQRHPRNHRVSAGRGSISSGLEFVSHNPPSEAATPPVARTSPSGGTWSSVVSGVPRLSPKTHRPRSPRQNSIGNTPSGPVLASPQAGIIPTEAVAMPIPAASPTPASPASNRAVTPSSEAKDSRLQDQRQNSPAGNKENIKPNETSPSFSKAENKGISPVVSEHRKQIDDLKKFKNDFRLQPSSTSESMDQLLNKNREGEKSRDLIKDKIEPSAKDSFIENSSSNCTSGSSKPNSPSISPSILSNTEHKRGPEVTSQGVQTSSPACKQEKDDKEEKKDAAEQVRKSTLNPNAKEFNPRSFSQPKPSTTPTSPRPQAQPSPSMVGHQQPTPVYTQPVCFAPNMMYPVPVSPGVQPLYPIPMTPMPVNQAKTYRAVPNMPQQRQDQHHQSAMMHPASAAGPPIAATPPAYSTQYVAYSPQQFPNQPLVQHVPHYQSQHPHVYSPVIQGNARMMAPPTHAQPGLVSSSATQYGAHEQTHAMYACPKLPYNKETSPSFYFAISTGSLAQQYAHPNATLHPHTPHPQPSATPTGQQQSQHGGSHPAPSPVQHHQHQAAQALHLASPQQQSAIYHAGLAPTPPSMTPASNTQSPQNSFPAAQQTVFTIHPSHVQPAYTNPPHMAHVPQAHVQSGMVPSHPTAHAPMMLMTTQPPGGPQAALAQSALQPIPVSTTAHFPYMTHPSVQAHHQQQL
Experiment: qHTS for Inhibitors of ATXN expression.
Format: functional
The whole screen tested about 400,000 compounds, of which about 2,100 (0.53%) were called active. About 14% were inconclusive and are not listed. How the calls were made is not given here. This excerpt belongs to a sample that is enriched for actives.
# valid calls are active, inactive; nothing else

Reference set, count: 5
Compound	Category
CC(C)CN(CC(C)C)S(=O)(=O)c1ccc(C(=O)Nc2sc3c(c2C(N)=O)CC(C)(C)NC3(C)C)cc1	inactive
Clc1ccc(-c2nc(N3CCOCC3)nc3ccccc23)cc1	inactive
Cc1ccc(S(=O)(=O)N2CCCc3cc(NS(=O)(=O)c4ccc(F)cc4)ccc32)cc1	active
CCCCc1cc(-c2nnc(S)o2)c2ccccc2n1	inactive
Cc1ccc(C(=O)N/C(=C/c2ccc(-c3ccc([N+](=O)[O-])cc3)o2)C(=O)NCCCN(C)C)cc1	inactive

Hello, I am checking results. What call was entered for `COCCN1C=C(C(=O)OC)C(c2ccc(Cl)cc2)C(C(=O)OC)=C1` ?
inactive

Hello, I am checking results. What call was entered for `CCCCc1ccc(Nc2nc(O)cc(CCC)n2)cc1` ?
active

Hello, I am checking results. What call was entered for `COc1cccc(NC(=O)/C(C#N)=C/c2ccc(-c3ccc(C)cc3)o2)c1` ?
inactive

Hello, I am checking results. What call was entered for `Oc1cnnc(Nc2ccc(Nc3ccccc3)cc2)n1` ?
inactive

Hello, I am checking results. What call was entered for CCOC(=O)c1c(NC(=O)c2ccc(S(=O)(=O)N3CCCC(C)C3)cc2)sc2c1CC(C)(C)NC2(C)C (stereo not given) ?
inactive
